Target: T1, Human BCMA (human, UniProt Q02223 1-54, limits assumed)
T1 construct: also called huBCMA; B-cell maturation antigen
T1 sequence (looked up): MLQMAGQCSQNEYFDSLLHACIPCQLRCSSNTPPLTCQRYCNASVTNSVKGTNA
Experiment: SPR, IgG immobilised, human BCMA analyte
parameter: kon (M⁻¹ s⁻¹)
Express it in M⁻¹ s⁻¹; write the number only.

(Q) Which kon value belongs to A02_Rd4_6nM_C01 (antibody, V domains shown, IgG) VH: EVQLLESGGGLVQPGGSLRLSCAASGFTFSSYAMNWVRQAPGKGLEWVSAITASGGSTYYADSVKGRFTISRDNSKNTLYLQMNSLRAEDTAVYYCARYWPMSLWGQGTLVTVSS VL: EIVLTQSPGTLSLSPGERATLSCRASQSVSAYYLAWYQQKPGQAPRLLMYDASIRATGIPDRFSGSGSGTDFTLTISRLEPEDFAVYYCQQYERWPLTFGQGTKVEIK ?
(A) 3.11e+06

(Q) Which kon value belongs to A02_Rd4_6nM_C19 (antibody, V domains shown, IgG) VH: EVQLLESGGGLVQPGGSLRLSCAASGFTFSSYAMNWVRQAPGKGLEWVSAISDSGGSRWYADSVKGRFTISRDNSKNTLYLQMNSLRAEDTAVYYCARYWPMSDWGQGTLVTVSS VL: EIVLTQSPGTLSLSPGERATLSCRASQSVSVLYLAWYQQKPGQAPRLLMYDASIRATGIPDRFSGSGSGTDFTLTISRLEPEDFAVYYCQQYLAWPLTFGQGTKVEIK ?
(A) 3e+06

(Q) Which kon value belongs to A02_Rd4_6nM_C23 (antibody, V domains shown, IgG) VH: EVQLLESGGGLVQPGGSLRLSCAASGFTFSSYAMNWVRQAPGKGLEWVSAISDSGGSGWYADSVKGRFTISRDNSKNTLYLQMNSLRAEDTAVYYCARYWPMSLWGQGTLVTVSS VL: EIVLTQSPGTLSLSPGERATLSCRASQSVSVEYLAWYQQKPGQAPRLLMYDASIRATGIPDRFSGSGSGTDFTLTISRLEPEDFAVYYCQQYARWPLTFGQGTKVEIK ?
(A) 1.22e+07

(Q) Which kon value belongs to A02_Rd4_6nM_C10 (antibody, V domains shown, IgG) VH: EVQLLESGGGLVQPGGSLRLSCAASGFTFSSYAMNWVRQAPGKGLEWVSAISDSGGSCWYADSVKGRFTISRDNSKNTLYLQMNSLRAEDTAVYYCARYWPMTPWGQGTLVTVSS VL: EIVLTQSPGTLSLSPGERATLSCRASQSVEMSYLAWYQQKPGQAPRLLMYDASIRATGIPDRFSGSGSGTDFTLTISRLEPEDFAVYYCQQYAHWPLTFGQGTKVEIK ?
(A) 4.51e+06

(Q) Which kon value belongs to COMBO_Rd4_6nM_C22 (antibody, V domains shown, IgG) VH: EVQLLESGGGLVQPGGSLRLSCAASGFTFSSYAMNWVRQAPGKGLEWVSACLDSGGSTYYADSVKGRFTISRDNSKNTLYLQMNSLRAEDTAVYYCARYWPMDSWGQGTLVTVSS VL: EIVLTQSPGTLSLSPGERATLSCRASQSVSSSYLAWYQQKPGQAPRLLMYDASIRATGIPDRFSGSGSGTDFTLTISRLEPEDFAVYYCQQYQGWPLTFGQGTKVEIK ?
(A) 3.03e+06
